# Study Target: monoclonal antibody DD-1
# Procedure Text: Competition ELISA with monoclonal antibody DD-1
# Assay type: binding, Biozzi mice
# Condition Label: competitor vs monoclonal antibody DD-1; plate coated with A-triCDD-RSA
Reported Property: I50 (inhibits antibody binding by 50%)

The compound listed as Clc1ccc2oc3c(Cl)c(Cl)c(Cl)c(Cl)c3c2c1Cl shows I50 (inhibits antibody binding by 50%) equal to > 200 ng

According to the records, this compound ClC1=C(Cl)C2(Cl)C3C4CC(C5OC45)C3C1(Cl)C2(Cl)Cl (stereo not drawn) displays I50 (inhibits antibody binding by 50%) of > 2000 ng

Form: compound = ClC1C(Cl)C(Cl)C(Cl)C(Cl)C1Cl (stereo not drawn) ; I50 (inhibits antibody binding by 50%) = 300 ng
